assay: Pharmacokinetics after intra-duodenal injection (ID) in anesthetized rats, model mimicking enteric-coated oral dosage form, plasma LC-MS; format: in vivo, rat; details: rat, plasma, other: intra-duodenal injection (ID), 3 mg, pH 3.5, ID 0.3 ml C [10 mg/ml, Captopril 0.5 mg/ml, 10 mg/ml LLC, 400 mM Citrate pH 3.5, 150 mM NaCl]; Average (PK value of the mean concentrations); read-out: Tmax (converted)
RECORDED_ENDPOINT: Tmax

Reported Tmax ( `CC[C@H](C)[C@H](NC(=O)[C@H](Cc1ccc(O)cc1)NC(=O)[C@@H](NC(=O)[C@H](CCCNC(=N)N)NC(=O)[C@@H](N)CC(=O)O)C(C)C)C(=O)N[C@@H](Cc1c[nH]cn1)C(=O)N1CCC[C@H]1C(=O)O` ) = 5 min

---

test: Pharmacokinetics after subcutaneous (SC) administration of angiotensin (1-7) in PBS, plasma LC-MS; assay type: in vivo, female Sprague-Dawley rats; conditions: female, Sprague-Dawley, rat, plasma, sc, 3 mg, SC 0.3 mL of 10 mg/mL A(1-7) in PBS; Mean PK Value (average of individual PK parameters); read-out: Half-Life
RECORDED_ENDPOINT: Half-Life (min)
Respond with the bare value in min.

Lookup result for CC[C@H](C)[C@H](NC(=O)[C@H](Cc1ccc(O)cc1)NC(=O)[C@@H](NC(=O)[C@H](CCCNC(=N)N)NC(=O)[C@@H](N)CC(=O)O)C(C)C)C(=O)N[C@@H](Cc1c[nH]cn1)C(=O)N1CCC[C@H]1C(=O)O [Angiotensin (1-7)] ; measured Half-Life: 15.1

---

assay: Pharmacokinetics after intra-duodenal injection (ID) in anesthetized rats, model mimicking enteric-coated oral dosage form, plasma LC-MS; format: in vivo, rat; details: rat, plasma, other: intra-duodenal injection (ID), 3 mg, pH 3.5, ID 0.3 ml C [10 mg/ml, Captopril 5 mg/ml, 10 mg/ml LLC, 400 mM Citrate pH 3.5, 150 mM NaCl]; Average (PK value of the mean concentrations); read-out: Half-Life
RECORDED_ENDPOINT: Half-Life (min)
I only need the number, in min, no unit after it.

Record summary for `CC[C@H](C)[C@H](NC(=O)[C@H](Cc1ccc(O)cc1)NC(=O)[C@@H](NC(=O)[C@H](CCCNC(=N)N)NC(=O)[C@@H](N)CC(=O)O)C(C)C)C(=O)N[C@@H](Cc1c[nH]cn1)C(=O)N1CCC[C@H]1C(=O)O` : reported Half-Life = 13

---

experiment: Pharmacokinetics after subcutaneous (SC) administration of angiotensin (1-7) in PBS, plasma LC-MS; type: in vivo, female Sprague-Dawley rats; conditions: female, Sprague-Dawley, rat, plasma, sc, 3 mg, SC 0.3 mL of 10 mg/mL A(1-7) in PBS; Mean PK Value (average of individual PK parameters); read-out: AUC0-90 (converted)
RECORDED_ENDPOINT: AUC(0-t) (ng·h/mL)
Numbers only; they are read as ng·h/mL.

Quick note, AUC(0-t) for CC[C@H](C)[C@H](NC(=O)[C@H](Cc1ccc(O)cc1)NC(=O)[C@@H](NC(=O)[C@H](CCCNC(=N)N)NC(=O)[C@@H](N)CC(=O)O)C(C)C)C(=O)N[C@@H](Cc1c[nH]cn1)C(=O)N1CCC[C@H]1C(=O)O [Angiotensin (1-7)] landed at 10.2
